# Tested on: HL-60 cell line
# TEST_DETAILS: Testing on HL-60 leukemia cell line (MTT cytotoxicity)
# Assay type: cell-based, human
# APPLIED_CONDITIONS: HL-60 cells, medium with 20% fetal bovine serum, preliminary screening, read-out: HL60 (APL) IC50
QUANTITY_MEASURED: IC50

Answered cases to consult:
>  <COMPOUND>
CC1=C(/C=C/C(C)=C/C=C/C(C)=C/C(=O)O)C(C)(C)CCC1.COC(=O)C[C@](O)(CCCC(C)(C)O)C(=O)O[C@@H]1C(OC)=C[C@]23CCCN2CCc2cc4c(cc2[C@H]13)OCO4 (relative stereo) [Example 1, homoharringtonine all-trans-retinoate]

>  <IC50>
< 100 nM

$$$$
>  <COMPOUND>
COC(=O)CC(O)(CCCC(C)(C)O)C(=O)OC1C(OC)=CC23CCCN2CCc2cc4c(cc2C13)OCO4.O=C(O)C=Cc1ccc(-c2ccc(O)c(C34CC5CC(CC(C5)C3)C4)c2)cc1 (stereo not drawn) [Example 6, homoharringtonine "adarotenoate"]

>  <IC50>
< 100 nM

$$$$

Name the recorded IC50 for CC1(C)CCC(C)(C)c2cc(C(=O)Nc3ccc(C(=O)O)cc3)ccc21.COC(=O)C[C@](O)(CCCC(C)(C)O)C(=O)O[C@@H]1C(OC)=C[C@]23CCCN2CCc2cc4c(cc2[C@H]13)OCO4 [Example 23, homoharringtonine Am 580 salt] . < 100 nM

Name the recorded IC50 for COC(=O)CC(O)(CCCC(C)(C)O)C(=O)O[C@@H]1C(OC)=C[C@]23CCCN2CCc2cc4c(cc2[C@H]13)OCO4.Cc1ccc(C2=CCC(C)(C)c3ccc(C#Cc4ccc(C(=O)O)cc4)cc32)cc1 (stereo partly drawn) . < 100 nM

---

IC50 for assorted molecules
# Test system: HL-60 cell line
# TEST_DETAILS: Testing on HL-60 leukemia cell line (MTT cytotoxicity)
# Type: cell-based, human
# APPLIED_CONDITIONS: HL-60 cells, medium with 20% fetal bovine serum, preliminary screening, read-out: HL60 (APL) IC50

>  <MOLECULE>
CC1=C(/C=C/C(C)=C/C=C/C(C)=C/C(=O)O)C(C)(C)CCC1.COC(=O)C[C@@]1(C(=O)O[C@@H]2C(OC)=C[C@]34CCCN3CCc3cc5c(cc3[C@H]24)OCO5)CCCC(C)(C)O1 (relative stereo) [Example 18]

>  <IC50>
< 100 nM

$$$$
>  <MOLECULE>
COC(=O)CC(O)(CCCC(C)(C)O)C(=O)O[C@@H]1C(OC)=C[C@]23CCCN2CCc2cc4c(cc2[C@H]13)OCO4.O=C(O)c1ccc2cc(-c3ccc(O)c(C45CC6CC(CC(C6)C4)C5)c3)ccc2c1 (some centres unmarked) [Example 11]

>  <IC50>
< 100 nM

$$$$
>  <MOLECULE>
COC(=O)C[C@](O)(CCCC(C)(C)O)C(=O)O[C@@H]1C(OC)=C[C@]23CCCN2CCc2cc4c(cc2[C@H]13)OCO4.COc1ccc(-c2ccc3cc(C(=O)O)ccc3c2)cc1C12CC3CC(CC(C3)C1)C2 [Example 8, homoharringtonine "adapalenoate"]

>  <IC50>
< 100 nM

$$$$
>  <MOLECULE>
COC(=O)CC(O)(CCCC(C)(C)O)C(=O)O[C@@H]1C(OC)=C[C@]23CCCN2CCc2cc4c(cc2[C@H]13)OCO4.O=C(O)c1ccc(-c2ccc3cc(O)c(C45CC6CC(CC(C6)C4)C5)cc3c2)cc1 (some centres unmarked) [Example 12]

>  <IC50>
< 100 nM

$$$$
>  <MOLECULE>
C=C(c1ccc(C(=O)O)cc1)c1cc2c(cc1C)C(C)(C)CCC2(C)C.COC(=O)C[C@](O)(CCCC(C)(C)O)C(=O)O[C@@H]1C(OC)=C[C@]23CCCN2CCc2cc4c(cc2[C@H]13)OCO4 [Example 7, homoharringtonine "bexarotenoate"]

>  <IC50>
< 20 nM

$$$$
>  <MOLECULE>
CC1(C)CCC(C)(C)c2cc(NC(=O)c3ccc(C(=O)O)cc3)ccc21.COC(=O)CC(O)(CCCC(C)(C)O)C(=O)OC1C(OC)=CC23CCCN2CCc2cc4c(cc2C13)OCO4 (centres unmarked) [Example 5, homoharringtonine tamibarotenoate]

>  <IC50>
< 50 nM

$$$$
>  <MOLECULE>
CC1(C)CC=C(c2cnc3ccccc3c2)c2cc(C(=O)Nc3ccc(C(=O)O)cc3)ccc21.COC(=O)CC(O)(CCCC(C)(C)O)C(=O)O[C@@H]1C(OC)=C[C@]23CCCN2CCc2cc4c(cc2[C@H]13)OCO4 (some centres unmarked) [Example 10]

>  <IC50>
< 100 nM

$$$$
>  <MOLECULE>
CC1(C)C(=O)C(C)(C)c2cc(C(=O)Nc3ccc(C(=O)O)cc3)ccc21.COC(=O)CC(O)(CCCC(C)(C)O)C(=O)O[C@@H]1C(OC)=C[C@]23CCCN2CCc2cc4c(cc2[C@H]13)OCO4 (some centres unmarked) [Example 15]

>  <IC50>
< 100 nM

$$$$
>  <MOLECULE>
COC(=O)CC(O)(CCC(C)(C)O)C(=O)OC1C(OC)=CC23CCCN2CCc2cc4c(cc2C13)OCO4.COc1cc(C)c(C=CC(C)=CC=CC(C)=CC(=O)O)c(C)c1C (centres unmarked) [Example 17, harringtonine acitretinate]

>  <IC50>
< 100 nM

$$$$
>  <MOLECULE>
CC(C=CC1=C(C)CCCC1(C)C)=CC=CC(C)=CC(=O)O.COC(=O)CC(O)(CCC(C)(C)O)C(=O)OC1C(OC)=CC23CCCN2CCc2cc4c(cc2C13)OCO4 (stereo not drawn) [Example 2, harringtonine all-trans-retinoate]

>  <IC50>
> 100 nM

$$$$

Shifting focus to the molecule that follows.
Name the recorded IC50 for COC(=O)CC(O)(CCCC(C)(C)O)C(=O)OC1C(OC)=CC23CCCN2CCc2cc4c(cc2C13)OCO4.COc1cc(C)c(C=CC(C)=CC=CC(C)=CC(=O)O)c(C)c1C (centres unmarked) [Example 4, homoharringtonine "acitretinoate"] . < 100 nM
